Source listed as ChEMBL document CHEMBL1201862.

Tested on: SNB-19
Test: NCI tumour cell line growth inhibition, 48 h
The source made the active and inactive calls. Cut-off read from the data, not from the text of the source: active = GI50 up to about 1.1 µM and inactive = higher.
Pick one and only one: active, inactive

Examples from the recorded data:
Cc1ccc2c(ccc3c[n+]4ccccc4c(C)c32)c1.[O-][Cl+3]([O-])([O-])[O-]
active
Cc1cc2c(cc1Cl)Sc1n[nH]c(=O)n1S2(=O)=O
inactive
N#CCC(=O)N/N=C(\CCN1CCCC1)CC(c1ccccc1)c1c(O)c2ccccc2oc1=O (centres undefined)
inactive
C[n+]1c(-c2ccccc2)cc2/c(=C\c3ccc([N+](=O)[O-])cc3)c3ccccc3n21
inactive

We next turn to a different compound, shown below.
Q: Write down the call the test reported for this compound. Item: COc1ccc(/C(=N/NC(N)=O)C(c2ccc(OC)cc2)C2C(=O)Oc3ccccc32)cc1 (centres undefined)
Result: inactive

----------
I'd be grateful if you could share measured GI50 for these entries.
Test system: K562
Test: NCI tumour cell line growth inhibition, 48 h
Calls of active or inactive are those of the source. Rule as the data show it: active = GI50 up to about 1.1 µM and inactive = higher.

# example entries with known answers
COc1cc2c(cc1OC)C1c3ccccc3CCCN1CC2 (stereo unspecified)
> 100 µM (inactive)
CC1CNC(c2ccc3c(c2)Cc2cc(C4=NC(C)CN4)ccc2-3)=N1 (stereo unspecified)
34.4 µM (inactive)
CSc1c(C#N)c(S)n(-c2ccc(Cl)cc2)c(=O)c1C#N
63 µM (inactive)

Give GI50 for each listed item.
1. Cc1ccc(C(=O)O/N=C2/CCC/C2=C\c2ccccc2)cc1
2. CCOc1ccc(N/C(=C(/C(Cl)=C(/Cl)NCCN)[N+](=O)[O-])n2nnc3ccccc32)cc1

Result:
["> 100 µM (inactive)", "26.8 µM (inactive)"]

Give me GI50 for each of these compounds, listed below.
1. C=CCN1C(=O)N/C(=C\c2ccc(Cl)cc2)C1=O
2. CCOC(=O)N1CCN(Cc2cc(=O)n3cc(C)ccc3n2)CC1
3. CS(=O)(=O)NC12CCC(c3ccccc31)c1ccccc12
4. CCCCCCCCCCCCCCCCOC[C@H](COC(c1ccccc1)(c1ccccc1)c1ccccc1)O[PH](=S)OC (stereo partly specified)
5. COc1ccc(/C=C2\Cc3ccccc3C2=O)cc1OC

Result:
["> 100 µM (inactive)", "> 100 µM (inactive)", "> 100 µM (inactive)", "> 100 µM (inactive)", "> 100 µM (inactive)"]

Notebook: `O=C1N=C2N=C(c3ccc(Cl)cc3)N(c3ccc(Cl)cc3)N2Sc2ccccc21` , GI50 read as > 100 µM (inactive)

----------
So I've got a bunch of molecules here, and I need their GI50 values.
Tested on: BT-549
Test: NCI tumour cell line growth inhibition, 48 h
Active and inactive are the calls of the source. No stated cut-off is given here; in the data, active = GI50 up to about 1.1 µM and inactive = higher.

Below, each entry is followed by its recorded GI50 result.
Cc1cc2c(cc1Cl)Sc1n[nH]c(=O)n1S2(=O)=O
> 100 µM (inactive)
C#CCn1ncc2c(SC)ncnc21
> 100 µM (inactive)
CCOC(=O)c1c(C)c(C)n2c1NC(=O)C2
50.9 µM (inactive)
O=C(O)CCc1ccc2c(c1)C(=O)CC2
> 100 µM (inactive)
Cc1ccccc1OC(C)C(=O)NN1C(=O)CC(=O)N(c2ccc(Cl)cc2)C1=S (stereo unspecified)
37.2 µM (inactive)

Shift focus to the following entry.
# molecule `COC(=O)c1cnc(Cl)c([N+](=O)[O-])c1` ; its GI50 = 17.9 µM (inactive)

----------
Test system: MCF7
Assay: NCI tumour cell line growth inhibition, 48 h
The source made the active and inactive calls. No stated cut-off is given here; in the data, active = GI50 up to about 1.1 µM and inactive = higher.
Tick one outcome: active, inactive

CCCNC(=S)N/N=C(\C)c1ccc(S(=O)(=O)N(C)c2ccccc2)cc1
inactive
CNc1ccc(OC)cc1S(=O)(=O)c1ccccc1[N+](=O)[O-]
inactive
C/C(=N\Nc1nc2ccccc2n1C)c1cnccn1
active
COC1CC(n2ccc(=O)[nH]c2=O)OC1CO (stereo unspecified)
active
COc1ccc(-c2nc(N3CCCC3)no2)cc1
inactive

Q: Outcome logged for `CC(C)N1C=[N+](C(C)C)CC1` in this assay:
Result: inactive

----------
Tested on: UACC-257
Experiment: NCI tumour cell line growth inhibition, 48 h
Activity calls are given as the source filed them. No stated cut-off is given here; in the data, active = GI50 up to about 1.1 µM and inactive = higher.
For each entry below, report its GI50 value.

Worked examples, 8 compounds total:
COc1ccc(/C=C/C(=O)/C=C/c2ccc(OC)cc2OC)c(OC)c1
1.39 µM (inactive)
CC(C)C(O)(C(C)C)C(C)C
> 100 µM (inactive)
Cc1ccc2sc3ccc(N)cc3c(=O)c2c1
> 100 µM (inactive)
COc1ccc(/C(=N/NC(=O)NN)C(c2ccc(OC)cc2)C2(O)CNc3c(Cl)cc(Cl)cc32)cc1 (stereo not given)
> 100 µM (inactive)
Cc1cc(S(=O)(=O)Nc2nc3ccccc3n2-c2ccccc2)c(S)cc1Cl
> 100 µM (inactive)
COc1cc2c(cc1OCCCCCCCCCCN1C(=O)c3cccc4cccc(c34)C1=O)N=C[C@@H]1CCCN1C2=O
16.1 µM (inactive)
C=CCN1C(=O)N/C(=C\c2ccc(Cl)cc2)C1=O
> 100 µM (inactive)
c1csc(-c2ccc(-c3cccc4nsnc34)s2)c1
> 100 µM (inactive)

// for each compound in input: emit GI50
1. CCOC(=O)C(C(=O)OCC)C(=S)NC1OC(COC(C)=O)C(OC(C)=O)C(OC(C)=O)C1OC(C)=O (stereo not given)
2. COc1cc2c(cc1C1=NC(C)(C)CO1)OCO2

Result:
1: > 100 µM (inactive); 2: > 100 µM (inactive)

----------
Provide the recorded GI50 for the entries that follow.
System: OVCAR-3
Test: NCI tumour cell line growth inhibition, 48 h
The source made the active and inactive calls. Rule as the data show it: active = GI50 up to about 1.1 µM and inactive = higher.

Reference set, count: 4
O=C(O)c1nnsc1-c1ccc(-c2snnc2C(=O)O)cc1
91.2 µM (inactive)
O=C(CSc1nc2ccc(I)cc2c(=O)n1Cc1ccccc1)NN1C(=O)CSC1c1ccccc1 (stereo not given)
16.1 µM (inactive)
Cc1cc(/N=C/c2c(CO)cnc(C)c2O)c(/N=C/c2c(CO)cnc(C)c2O)cc1C
> 100 µM (inactive)
COc1cc2c(cc1OCCCCCCCCCCN1C(=O)c3cccc4cccc(c34)C1=O)N=C[C@@H]1CCCN1C2=O
3.73 µM (inactive)

As a next step, examine the molecule that follows.
According to the records, this molecule COc1nc(N)c(/N=C/C(OC(C)=O)C(OC(C)=O)C(COC(C)=O)OC(C)=O)c(=O)n1C (stereo not given) displays GI50 of > 100 µM (inactive)

----------
Please respond with reported GI50 for every item in the list.
System: SF-295
Test: NCI tumour cell line growth inhibition, 48 h
Activity calls are given as the source filed them. No stated cut-off is given here; in the data, active = GI50 up to about 1.1 µM and inactive = higher.

Field: example entries. Status: answers known.
CO/N=C/c1cc(OC)c(OC)c(OC)c1
> 100 µM (inactive)
CCCCCCCCCCCCCCCCCC(=O)NCC(COP(=O)(O)O)OCC (configuration not stated)
18.5 µM (inactive)
COC12C=CC(C=C1C#N)CC2.COC12C=CC(CC1)CC2=O (configuration not stated)
> 100 µM (inactive)
CC(C)[Si]1(C(C)C)OCC2OC(n3cnc4c(N)ncnc43)C(N)C2O[Si](C(C)C)(C(C)C)O1 (configuration not stated)
3.65 µM (inactive)
C/C(=N\Nc1nc2ccccc2n1C)c1cnccn1
0.367 µM (active)
O=c1c2ccccc2nc2sc(/N=C/C=C/c3ccccc3)nn12
> 100 µM (inactive)
Clc1ccc(OCc2nnc(COc3ccc(OCc4nnc(COc5ccc(Cl)cc5Cl)o4)c(Cl)c3)o2)c(Cl)c1
33.3 µM (inactive)
OC1(C23CC4CC(CC(C4)C2)C3)CSCC1(O)C12CC3CC(CC(C3)C1)C2 (configuration not stated)
> 100 µM (inactive)
Cc1cc(S(=O)(=O)Nc2nc3ccccc3n2-c2ccccc2)c(S)cc1Cl
44.4 µM (inactive)
C=C(CO)C(=O)OC1CC(=C)C2CC(O)C(C)C2C2OC(=O)C(=C)C12 (configuration not stated)
19.4 µM (inactive)

The following compounds each have a reported value; give each one's GI50.
1. OC12C3C4CC5C(C4[C@@H]1Br)C2[C@@](O)(c1c(F)c(F)c(F)c(F)c1F)C53 (some centres not stated)
2. c1coc(CNc2[nH]cnc3nncc2-3)c1
3. O=C(O)CCc1ccc2c(c1)C(=O)CC2
4. COC(=O)/C(=C/CC(N=C(c1ccccc1)c1ccccc1)C(=O)OC)N=C(c1ccccc1)c1ccccc1 (configuration not stated)
5. Oc1ccccc1/C=N/c1ccc(Oc2ccc(Cl)cc2)c(Cl)c1
6. CC(C#N)NCc1ccc(C(C)NC(C)C#N)cc1 (configuration not stated)

Result:
1: 25.9 µM (inactive); 2: > 100 µM (inactive); 3: > 100 µM (inactive); 4: > 100 µM (inactive); 5: 18.7 µM (inactive); 6: > 100 µM (inactive)

----------
Exercise: state measured GI50 for each of the compounds provided.
Test system: A549
Experiment: NCI tumour cell line growth inhibition, 48 h
Activity calls are given as the source filed them. Rule as the data show it: active = GI50 up to about 1.1 µM and inactive = higher.

CC1=NN(C(=O)CC(=O)Nc2ccccc2Cl)C(=O)C1/N=N/c1ccc(C(=O)O)cc1 (configuration not stated)
> 100 µM (inactive)
CNc1ccc(OC)cc1S(=O)(=O)c1ccccc1[N+](=O)[O-]
98.2 µM (inactive)
O=c1ccn(-c2ccccn2)c(=O)n1-c1ccccn1
> 100 µM (inactive)
CCC1=CCN(c2cc(C)ccn2)OC1c1ccccc1 (configuration not stated)
40.1 µM (inactive)

Give GI50 for all compounds that follow.
1. CC1OC(n2cc(F)c(=O)[nH]c2=O)CCC1=O (configuration not stated)
2. O=c1[nH]nc2c3n[nH]c(=O)n3c3ccccc3n12
3. CC1(C)OC(=O)C(=Cc2ccc([N+](=O)[O-])s2)C(=O)O1
4. COc1ccc(/C=C/C(=O)C(C)(C)C)cc1OC
5. C=C=C(CC(CC(=C)Br)(C(=O)OC)C(=O)OC)S(=O)(=O)c1ccccc1
6. COc1ccc(/C=C/C(=O)c2sc(Nc3ccc([N+](=O)[O-])cc3)nc2C)cc1
7. N#CC1=C(N)OC2=C(CCCc3ccccc32)C1c1ccc([N+](=O)[O-])cc1 (configuration not stated)
8. Oc1ccccc1/C=N/c1ccc(Oc2ccc(Cl)cc2)c(Cl)c1

Result:
["46.7 µM (inactive)", "> 100 µM (inactive)", "90.8 µM (inactive)", "> 100 µM (inactive)", "2.78 µM (inactive)", "33 µM (inactive)", "19 µM (inactive)", "20.6 µM (inactive)"]

Provide reported GI50 for each item, in the same order as listed.
1. CN1CCC(C(=O)NNc2ccccc2)CC1
2. CC(C)[Si]1(C(C)C)OCC2OC(n3cnc4c(N)ncnc43)C(N)C2O[Si](C(C)C)(C(C)C)O1 (configuration not stated)
3. CC1(C)CCC[C@@]2(C)C1CC[C@H]1CC(O)C3(C)CCC12C3 (some centres not stated)
4. COc1cc(OC)cc(N2CCC(c3c(N)nc(N)nc3Cl)CC2)c1
5. COc1ccc2c(c1)CC[C@@H]1C2CC[C@]2(C)C(=C=CP(=O)(O)O)CCC12 (some centres not stated)
6. COc1cc(/C=C\c2ccccc2)cc(OC)c1OC
7. Cc1nc(C(N)=S)sc1/C(CC(=O)C(=O)Nc1cccc2ccc(O)cc12)=N\NC(=O)c1ccncc1
8. CC(=O)Oc1ccc2c(c1)c1c(=O)oc(C)nc1n2Cc1ccccc1

Result:
["12.2 µM (inactive)", "5.58 µM (inactive)", "18.7 µM (inactive)", "65 µM (inactive)", "> 100 µM (inactive)", "5.28 µM (inactive)", "> 100 µM (inactive)", "67.5 µM (inactive)"]

Report GI50 for every entry below.
1. CSc1ccc(/C=C/c2ccnc3ccccc23)cc1
2. S=C(Nc1c2c(nc3ccccc13)CCCC2)Nc1c2c(nc3ccccc13)CCCC2

Result:
12.5 µM (inactive)
> 100 µM (inactive)
